Biological target: FGFR1 (human)
Conditions: compound 10.0 µM
Readout Type: inhibition (%)

Below are worked cases with known answers.
[
  {
    "Compound": "O=S(=O)(NCCNC/C=C/c1ccc(Br)cc1)c1cccc2cnccc12",
    "System Name": "FGFR1 (human)",
    "Readout Type": "inhibition",
    "Reported Result": 14
  },
  {
    "Compound": "CC(C)(C)n1nc(-c2ccc(Cl)cc2)c2c(N)ncnc21",
    "System Name": "FGFR1 (human)",
    "Readout Type": "inhibition",
    "Reported Result": 43
  },
  {
    "Compound": "Cc1cc(I)ccc1Nc1c(C(=O)NOCC2CC2)cc(F)c(F)c1F",
    "System Name": "FGFR1 (human)",
    "Readout Type": "inhibition",
    "Reported Result": 3
  },
  {
    "Compound": "CC(C)[C@H](CO)Nc1nc(Nc2cccc(Cl)c2)c2ncn(C(C)C)c2n1",
    "System Name": "FGFR1 (human)",
    "Readout Type": "inhibition",
    "Reported Result": 28
  }
]

I = C=CC(=O)c1ccc2ccccc2c1
II = COc1ccc(C(=O)Nc2sc3c(c2C(N)=O)CCCC3)cc1OC
Which value of inhibition is greater, the one for I or the one for II ? Choose, then provide that item's label.
II
(II: 9%, I: 0%)

a = O=c1cc(N2CCOCC2)nc2c3ccccc3ccn12
b = Cn1cc(/C=C2/C(=O)Nc3cccnc32)c2ccccc21
Which value of inhibition is greater, the one for a or the one for b ? Choose, then provide that item's label.
b
